meta.source: PubChem BioAssay AID1919017

- System: SW1271 complex spheroids with HUVEC/MSC, growth, % test/control
- procedure summary: Anticancer human tumor SW1271 cell line growth inhibition [AhR];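 further: spheroids exposed to agents for 7 days before readout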
- conditions: second compound 0.316 µM; first compound 1 µM; hits give low values
Give viability, T/C for every item shown.
Write it as a number; the unit % goes unstated.

Query: Using the record for COc1cccc2c1C(=O)c1c(O)c3c(c(O)c1C2=O)CC(O)(C(=O)CO)CC3OC1CC(N)C(O)C(C)O1 (stereo unspecified) + Cc1cncc(-c2nc(NCCc3c[nH]c4ccccc34)c3ncn(C(C)C)c3n2)c1 , report its viability, T/C.
Reply: 2.96

Query: Using the record for CC1COCCN1c1cc(C2(S(C)(=N)=O)CC2)nc(-c2ccnc3[nH]ccc23)n1 (stereo unspecified) + Cc1cncc(-c2nc(NCCc3c[nH]c4ccccc34)c3ncn(C(C)C)c3n2)c1 , report its viability, T/C.
Reply: 103

Query: Using the record for O=C(C=Cc1cccc(S(=O)(=O)Nc2ccccc2)c1)NO + Cc1cncc(-c2nc(NCCc3c[nH]c4ccccc34)c3ncn(C(C)C)c3n2)c1 , report its viability, T/C.
Reply: 61.9

Query: Using the record for COc1ccc([C@@H](O)c2cc(-c3ncnc4cc(N5CCOCC5)ccc34)c(F)cc2Cl)nn1 + Cc1cncc(-c2nc(NCCc3c[nH]c4ccccc34)c3ncn(C(C)C)c3n2)c1 , report its viability, T/C.
Reply: 72.7

Query: Using the record for Nc1ncn(C2CC(O)C(CO)O2)c(=O)n1 (stereo unspecified) + CC(CO)NC(=O)c1cc(-c2ccc(Cl)cc2)nn(-c2cnn(C)c2)c1=O , report its viability, T/C.
Reply: 105

Query: Using the record for COc1cccc2c1C(=O)c1c(O)c3c(c(O)c1C2=O)CC(O)(C(=O)CO)CC3OC1CC(N)C(O)C(C)O1 (stereo unspecified) + CC(CO)NC(=O)c1cc(-c2ccc(Cl)cc2)nn(-c2cnn(C)c2)c1=O , report its viability, T/C.
Reply: 4

* * *

- System: SW1271 complex spheroids with HUVEC/MSC, growth, % test/control
- procedure summary: Anticancer human tumor SW1271 cell line growth inhibition [AhR];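 further: spheroids exposed to agents for 7 days before readout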
- conditions: second compound 10 µM; first compound 10 µM; hits give low values
- Description: Multicellular complex tumor spheroid response to aryl hydrocarbon receptor antagonists in combination with a variety of drugs and investigational agents in selected tumor cell lines […] Compounds. […] If the clinical Cmax for an agent had not been determined, the highest concentration tested was 10 microM (Table 1). […]
measured quantity: viability, T/C (%)
Write it as a number; the unit % goes unstated.

Query: Using the record for COc1cc(Nc2ncc3c(n2)-c2ccc(Cl)cc2C(c2c(F)cccc2OC)=NC3)ccc1C(=O)O + Cc1cncc(-c2nc(NCCc3c[nH]c4ccccc34)c3ncn(C(C)C)c3n2)c1 , report its viability, T/C.
Reply: 40.4

Query: Using the record for CC(C)c1c(-c2ccccc2)nc2c(C#N)c[nH]n2c1=O + CC(CO)NC(=O)c1cc(-c2ccc(Cl)cc2)nn(-c2cnn(C)c2)c1=O , report its viability, T/C.
Reply: 77.8

Query: Using the record for CC(C)c1c(-c2ccccc2)nc2c(C#N)c[nH]n2c1=O + Cc1ccccc1N=Nc1ccc(NC(=O)c2ccnn2C)c(C)c1 , report its viability, T/C.
Reply: 87.6

Query: Using the record for COc1cccc2c1C(=O)c1c(O)c3c(c(O)c1C2=O)CC(O)(C(=O)CO)CC3OC1CC(N)C(O)C(C)O1 (stereo unspecified) + CC(CO)NC(=O)c1cc(-c2ccc(Cl)cc2)nn(-c2cnn(C)c2)c1=O , report its viability, T/C.
Reply: 3.41

Query: Using the record for Nc1ccn(C2OC(CO)C(O)C2(F)F)c(=O)n1 (stereo unspecified) + CC(CO)NC(=O)c1cc(-c2ccc(Cl)cc2)nn(-c2cnn(C)c2)c1=O , report its viability, T/C.
Reply: 44

Query: Using the record for CC1(C)CCC(CN2CCN(c3ccc(C(=O)NS(=O)(=O)c4ccc(NCC5CCOCC5)c([N+](=O)[O-])c4)c(Oc4cnc5[nH]ccc5c4)c3)CC2)=C(c2ccc(Cl)cc2)C1 + Cc1ccccc1N=Nc1ccc(NC(=O)c2ccnn2C)c(C)c1 , report its viability, T/C.
Reply: 93.3

Query: Using the record for O=C(C=Cc1cccc(S(=O)(=O)Nc2ccccc2)c1)NO + Cc1ccccc1N=Nc1ccc(NC(=O)c2ccnn2C)c(C)c1 , report its viability, T/C.
Reply: 26.1

Query: Using the record for O=C(C=Cc1cccc(S(=O)(=O)Nc2ccccc2)c1)NO + Cc1cncc(-c2nc(NCCc3c[nH]c4ccccc34)c3ncn(C(C)C)c3n2)c1 , report its viability, T/C.
Reply: 25.5

Query: Using the record for COc1ccc([C@@H](O)c2cc(-c3ncnc4cc(N5CCOCC5)ccc34)c(F)cc2Cl)nn1 + Cc1ccccc1N=Nc1ccc(NC(=O)c2ccnn2C)c(C)c1 , report its viability, T/C.
Reply: 37.4

Query: Using the record for CC(C)c1c(-c2ccccc2)nc2c(C#N)c[nH]n2c1=O + Cc1cncc(-c2nc(NCCc3c[nH]c4ccccc34)c3ncn(C(C)C)c3n2)c1 , report its viability, T/C.
Reply: 50.4

Query: Using the record for COc1ccc([C@@H](O)c2cc(-c3ncnc4cc(N5CCOCC5)ccc34)c(F)cc2Cl)nn1 + CC(CO)NC(=O)c1cc(-c2ccc(Cl)cc2)nn(-c2cnn(C)c2)c1=O , report its viability, T/C.
Reply: 29.1

Query: Using the record for CC1(C)CCC(CN2CCN(c3ccc(C(=O)NS(=O)(=O)c4ccc(NCC5CCOCC5)c([N+](=O)[O-])c4)c(Oc4cnc5[nH]ccc5c4)c3)CC2)=C(c2ccc(Cl)cc2)C1 + CC(CO)NC(=O)c1cc(-c2ccc(Cl)cc2)nn(-c2cnn(C)c2)c1=O , report its viability, T/C.
Reply: 78.2

Query: Using the record for NS(=O)(=O)OCC1CC(n2ccc3c(NC4CCc5ccccc54)ncnc32)CC1O (stereo unspecified) + CC(CO)NC(=O)c1cc(-c2ccc(Cl)cc2)nn(-c2cnn(C)c2)c1=O , report its viability, T/C.
Reply: 63.6

Query: Using the record for O=C(C=Cc1cccc(S(=O)(=O)Nc2ccccc2)c1)NO + CC(CO)NC(=O)c1cc(-c2ccc(Cl)cc2)nn(-c2cnn(C)c2)c1=O , report its viability, T/C.
Reply: 9.34

Query: Using the record for COc1cc(Nc2ncc3c(n2)-c2ccc(Cl)cc2C(c2c(F)cccc2OC)=NC3)ccc1C(=O)O + CC(CO)NC(=O)c1cc(-c2ccc(Cl)cc2)nn(-c2cnn(C)c2)c1=O , report its viability, T/C.
Reply: 38.9

Query: Using the record for CC1COCCN1c1cc(C2(S(C)(=N)=O)CC2)nc(-c2ccnc3[nH]ccc23)n1 (stereo unspecified) + Cc1cncc(-c2nc(NCCc3c[nH]c4ccccc34)c3ncn(C(C)C)c3n2)c1 , report its viability, T/C.
Reply: 28.9

* * *

- Test system: SW1271 complex spheroids with HUVEC/MSC, growth, % test/control
- procedure summary: Anticancer human tumor SW1271 cell line growth inhibition [AhR];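 further: spheroids exposed to agents for 7 days before readout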
- conditions: second compound 3.16 µM; first compound 0.000316 µM; hits give low values
Give viability, T/C for every item shown.
Write it as a number; the unit % goes unstated.

Query: Using the record for Cn1ncnc1C1c2n[nH]c(=O)c3cc(F)cc(c23)NC1c1ccc(F)cc1 (stereo unspecified) + Cc1ccccc1N=Nc1ccc(NC(=O)c2ccnn2C)c(C)c1 , report its viability, T/C.
Reply: 96.1

Query: Using the record for Cn1ncnc1C1c2n[nH]c(=O)c3cc(F)cc(c23)NC1c1ccc(F)cc1 (stereo unspecified) + Cc1cncc(-c2nc(NCCc3c[nH]c4ccccc34)c3ncn(C(C)C)c3n2)c1 , report its viability, T/C.
Reply: 103

Query: Using the record for CC[C@@]1(O)C(=O)OCc2c1cc1n(c2=O)Cc2cc3c(CN(C)C)c(O)ccc3nc2-1 + Cc1cncc(-c2nc(NCCc3c[nH]c4ccccc34)c3ncn(C(C)C)c3n2)c1 , report its viability, T/C.
Reply: 95.2

Query: Using the record for CC[C@@]1(O)C(=O)OCc2c1cc1n(c2=O)Cc2cc3c(CN(C)C)c(O)ccc3nc2-1 + CC(CO)NC(=O)c1cc(-c2ccc(Cl)cc2)nn(-c2cnn(C)c2)c1=O , report its viability, T/C.
Reply: 77.9

Query: Using the record for Cn1ncnc1C1c2n[nH]c(=O)c3cc(F)cc(c23)NC1c1ccc(F)cc1 (stereo unspecified) + CC(CO)NC(=O)c1cc(-c2ccc(Cl)cc2)nn(-c2cnn(C)c2)c1=O , report its viability, T/C.
Reply: 79.7

Query: Using the record for CC[C@@]1(O)C(=O)OCc2c1cc1n(c2=O)Cc2cc3c(CN(C)C)c(O)ccc3nc2-1 + Cc1ccccc1N=Nc1ccc(NC(=O)c2ccnn2C)c(C)c1 , report its viability, T/C.
Reply: 84.5

* * *

- Test system: SW1271 complex spheroids with HUVEC/MSC, growth, % test/control
- procedure summary: Anticancer human tumor SW1271 cell line growth inhibition [AhR];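 further: spheroids exposed to agents for 7 days before readout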
- conditions: second compound 0.316 µM; first compound 1 µM; hits give low values
Rule for this label: Criterion met means viability, T/C is less than 70%; Criterion not met means viability, T/C is at least 70%.

Query: Consider COc1cc(C2c3cc4c(cc3C(OC3OC5COC(C)OC5C(O)C3O)C3COC(=O)C23)OCO4)cc(OC)c1O (stereo unspecified) + CC(CO)NC(=O)c1cc(-c2ccc(Cl)cc2)nn(-c2cnn(C)c2)c1=O . Does its viability, T/C lie strictly below 70%?
Reply: Criterion met

Query: Consider O=C(c1cc(Cc2n[nH]c(=O)c3ccccc23)ccc1F)N1CCN(C(=O)C2CC2)CC1 + CC(CO)NC(=O)c1cc(-c2ccc(Cl)cc2)nn(-c2cnn(C)c2)c1=O . Does its viability, T/C lie strictly below 70%?
Reply: Criterion not met

Query: Consider CC1COCCN1c1cc(-c2ccnn2C)c2ccnc(-c3ccn[nH]3)c2n1 (stereo unspecified) + Cc1cncc(-c2nc(NCCc3c[nH]c4ccccc34)c3ncn(C(C)C)c3n2)c1 . Does its viability, T/C lie strictly below 70%?
Reply: Criterion met

Query: Consider CC(C)c1c(-c2ccccc2)nc2c(C#N)c[nH]n2c1=O + Cc1cncc(-c2nc(NCCc3c[nH]c4ccccc34)c3ncn(C(C)C)c3n2)c1 . Does its viability, T/C lie strictly below 70%?
Reply: Criterion not met

Query: Consider COc1cc(Nc2ncc3c(n2)-c2ccc(Cl)cc2C(c2c(F)cccc2OC)=NC3)ccc1C(=O)O + CC(CO)NC(=O)c1cc(-c2ccc(Cl)cc2)nn(-c2cnn(C)c2)c1=O . Does its viability, T/C lie strictly below 70%?
Reply: Criterion met

Query: Consider CC(C)c1c(-c2ccccc2)nc2c(C#N)c[nH]n2c1=O + CC(CO)NC(=O)c1cc(-c2ccc(Cl)cc2)nn(-c2cnn(C)c2)c1=O . Does its viability, T/C lie strictly below 70%?
Reply: Criterion not met
